target: T1, human TMEM106B (human, UniProt Q9NUM4 2-274); test: FACS, HEK293 transfectants;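 note: flow cytometry binding of hybridoma supernatants to HEK293 cells transiently expressing human, cyno or mouse TMEM106B, read as anti-mouse-APC median fluorescence, live cells only, 30 min on ice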
T1 construct: Full-length, on transiently transfected HEK293 cells, or natively expressed on HeLa, U251 and A549 cells; also called huTMEM106B; huTMEM
quantity_kind: fold-change over parental HEK293 (fold)
Give bare numbers, in fold.

Please supply fold-change over parental HEK293 for each of the following items, keeping them in order.
1. anti-TMEM106B antibody TM-17 (antibody, V domains shown) VH: QVQLQQSGAELIRPGTSVKVSCKASGYAFTDYLIEWVKQRPGQGLEWIGVINPGSGGTNYNEKFKGKAKLTADKSSSTAYMQLSSLTSEDSAVYFCVRSSYGVYVAYPMDYWGQGTSVTVSS VL: DIQMTQSPSSLSASLGERVSLTCRASQDIGSNLNWLQQEPDGTIKRLIYATSSLDSGVPKRFSGSRSGSDYSLTISSLESEDFVDYYCLQYASSPRTFGGGTKLEIK
2. anti-TMEM106B antibody TM-31 (antibody, V domains shown, mouse IgG from hybridoma) VH: QVQLQQSGAELAKPGASVKVSCKASGYTFISYWMNWVKQRPGQGLEWIGYINPTSGYTRYNQKFKDKATLTADKSSSTAYMQLSSLTYEDSAVYYCARSPPTVVLIGYFDYWGQGTTLTVSS VL: DIKMTQSPSSMYASLGERVTFTCKASQDINSYLSWFQQKPGKSPKTLIYRGNGLVDGVPSRFSGSGSGQDYSLTISSLEYEDMGIYYCLQYDEFPFTFASGTKLEIK
3. anti-TMEM106B antibody TM-9 (antibody, V domains shown) VH: EVQLVESGGDLVKPGGSLKLSCVASGFTFSGYGMSWVRQTPDKRLEWVATISSGSFYIYYPDSVKGRLTVSRDNAKNTLYLQMSSLKSEDTAIYYCARQNFYYGCEDYWGQGTTLTVSS VL: DIVMTQAAFSNPVTLGTSASISCRSSKSLLHSNGITYLYWYLQKPGQSPQLLIYQMSNLASGVPNRFSSSGSGTDFTLRISRVEAEDVGVYYCAQNLELPWTFGGGTKLEIK

Result:
1: 12.6; 2: 22.1; 3: 10.7
